Provide the recorded AUC(0-t) at 6 h for the entries that follow.
assay: AUC (0 to 6 hrs) in NMRI mouse at 3 mg/kg, ip; assay type: ADME, organism-based; parameters: time < 6 hr, dose 3 mg/kg, route intraperitoneal; conditions: plasma
In your response, put the unit directly after the numeric value.

Example cases with answers are listed next.
Quick one: AUC(0-t) at 6 h for Cc1cccc(N2CCN(CCCCCCN3CCN(c4ccccc4)CC3)CC2)c1 ? 147 ng·h/mL

Requested read-out: AUC(0-t) at 6 h. Entry: Cc1cccc(N2CCN(CCCCNC(=O)c3cc4ccccc4o3)CC2)c1 128 ng·h/mL

Recorded AUC(0-t) at 6 h of c1ccc(N2CCN(CCCCCCN3CCN(c4ccccn4)CC3)CC2)nc1 , please. 84 ng·h/mL

# per-item lookup of AUC(0-t) at 6 h; items listed below
1. Cc1cccc(N2CCN(CCCCCCN3CCN(c4ccccc4)CC3)CC2)n1
2. Cc1cccc(N2CCN(CCCCCCN3CCN(c4cccc(C)n4)CC3)CC2)c1
3. c1ccc(N2CCN(CCCCCCN3CCN(c4ccccc4)CC3)CC2)cc1
4. c1ccc(N2CCN(CCCCCCN3CCN(c4ccccn4)CC3)CC2)cc1

1: 362 ng·h/mL; 2: 243 ng·h/mL; 3: 198 ng·h/mL; 4: 58 ng·h/mL
